tested on: NCI-H226 lung; assay: NCI-60 one-dose screen, 48 h (100 = growth as untreated, 0 = no growth, -100 = all killed); settings: 10 µM unless noted
About 83,000 compounds went through this panel and 20% of them were active in at least one assay; those are over-represented in the sample as a whole.
Below, each entry is listed with its recorded growth.
Please state the figure in %; there is no need to write the unit.

INSERT INTO results (compound, measured_metric, assay_value) VALUES
  ('O=S(=O)(NCCNc1nccc(-c2c(-c3ccc(F)c(O)c3)nc3occn23)n1)c1ccccc1', 'growth', 92.1),
  ('CC(O)(CO)c1ccccc1 (stereo not given)', 'growth', 99.6),
  ('O=C(O)CCCCCCCCCCCCCCC(=O)O', 'growth', 85.3),
  ('O=C(Nc1nc2ccc(C(=O)N3CCN(c4ccc(Cl)c(Cl)c4)CC3)cc2s1)c1ccc(NCCc2ccccc2)c([N+](=O)[O-])c1', 'growth', 87.8),
  ('CCOC(=O)C1=C(C)NC(C)=C(C(=O)OCC)C1c1cc(Br)c(O)c(OC)c1', 'growth', 32.7),
  ('CCn1ccnc1C(=O)/C=C/c1ccc(CC(=O)Nc2ccc(F)cc2)cc1', 'growth', 87.4),
  ('Clc1cc(Cl)cc(N2N=C(c3cccc(Nc4ccncc4)c3)CC2c2ccc(Br)cc2)c1 (stereo not given)', 'growth', 85.7),
  ('C=Cc1cc[n+](CCCCCCCCCCCC)cc1', 'growth', 103);

Exercise: Report growth for O=C1NC(=O)C(=Cc2cn(Cc3ccccn3)c3ccccc23)C(=O)N1 please.
Solution: 79.7

Exercise: Return reported growth; argument: CC(C)(C)CC(C)(C)Nc1c(-c2ccc3c(c2)OCO3)nc2cnccn12
Solution: 90.1

Source: PubChem BioAssay (NCI)
